# tested.target: recombinant BACE1 protein (Homo sapiens)
# Construct: recombinant BACE1 protein in a final concentration of 0.04 μg/mL
# Sequence (P56817 46-501): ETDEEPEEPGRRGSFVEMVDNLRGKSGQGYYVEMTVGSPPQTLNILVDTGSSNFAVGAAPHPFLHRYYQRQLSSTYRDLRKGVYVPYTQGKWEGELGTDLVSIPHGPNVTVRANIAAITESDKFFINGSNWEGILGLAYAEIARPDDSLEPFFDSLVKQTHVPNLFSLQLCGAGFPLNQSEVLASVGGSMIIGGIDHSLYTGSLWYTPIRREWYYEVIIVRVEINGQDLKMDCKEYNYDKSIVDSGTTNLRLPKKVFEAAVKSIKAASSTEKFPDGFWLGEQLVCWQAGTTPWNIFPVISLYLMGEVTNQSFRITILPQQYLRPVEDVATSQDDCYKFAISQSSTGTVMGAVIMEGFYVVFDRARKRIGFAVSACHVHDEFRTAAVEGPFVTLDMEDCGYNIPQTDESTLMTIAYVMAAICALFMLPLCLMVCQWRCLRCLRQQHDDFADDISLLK
# method: BACE1 biochemical FRET based assay
# particulars: BACE2 IC50 relative to BACE1 IC50
Measured Selectivity of individual entries

[
  {
    "molecule": "C[C@]1(c2cc(NC(=O)c3ccc(C#N)cn3)ccc2F)N=C(N)O[C@@H]2CO[C@@H](CC(F)F)[C@@H]21",
    "tested.target": "recombinant BACE1 protein (Homo sapiens)",
    "Selectivity": 38.1
  },
  {
    "molecule": "C[C@@H](F)COc1cnc(C(=O)Nc2ccc(F)c([C@@]3(C)N=C(N)O[C@@H]4CO[C@@H](C(F)(F)F)[C@@H]43)c2)cn1",
    "tested.target": "recombinant BACE1 protein (Homo sapiens)",
    "Selectivity": 151
  },
  {
    "molecule": "NC1=N[C@](CF)(c2cc(NC(=O)c3cnc(OCF)cn3)ccc2F)[C@H]2[C@H](CC(F)F)OC[C@H]2O1",
    "tested.target": "recombinant BACE1 protein (Homo sapiens)",
    "Selectivity": 31
  },
  {
    "molecule": "C[C@]1(c2cc(NC(=O)c3cnc(OCF)cn3)ccc2F)N=C(N)O[C@@H]2CO[C@@H](CCF)[C@@H]21",
    "tested.target": "recombinant BACE1 protein (Homo sapiens)",
    "Selectivity": 37.1
  }
]
